Where these numbers come from: patent US20120077731A1

# Tgt: T1, Human membrane IL-6R on cells (human, UniProt P08887 20-468)
# T1 sequence (looked up): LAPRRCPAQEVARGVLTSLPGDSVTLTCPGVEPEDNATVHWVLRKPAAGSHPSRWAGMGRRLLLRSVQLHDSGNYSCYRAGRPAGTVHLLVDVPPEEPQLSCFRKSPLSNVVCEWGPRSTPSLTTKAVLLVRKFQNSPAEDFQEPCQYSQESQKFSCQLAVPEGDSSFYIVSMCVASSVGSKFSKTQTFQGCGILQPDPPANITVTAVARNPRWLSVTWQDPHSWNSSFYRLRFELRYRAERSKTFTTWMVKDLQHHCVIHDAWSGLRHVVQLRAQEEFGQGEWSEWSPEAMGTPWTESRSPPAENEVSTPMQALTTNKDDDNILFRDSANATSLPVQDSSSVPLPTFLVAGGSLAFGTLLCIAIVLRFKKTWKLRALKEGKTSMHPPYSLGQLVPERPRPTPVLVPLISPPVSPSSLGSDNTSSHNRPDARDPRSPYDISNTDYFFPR
# Protocol: cell-based or functional assay
Observation type: IC50 (nM) XG-1

[[record]]
binder = "IL6R13 (VHH, also called PMP35H4; not shown: C-terminal c-myc and (His)6 tags) VHH: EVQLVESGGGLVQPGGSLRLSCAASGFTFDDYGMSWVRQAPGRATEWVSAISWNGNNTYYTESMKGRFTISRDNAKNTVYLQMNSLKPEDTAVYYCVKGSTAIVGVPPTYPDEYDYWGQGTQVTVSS"
observation_type = "IC50 (nM) XG-1"
meas_value = 1.4

[[record]]
binder = "IL6R07 (VHH, also called PMP33A3; not shown: C-terminal c-myc and (His)6 tags) VHH: EVQLVESGGGLVQPGGSLRLSCAASGFTLDYGAIGWFRQAPGKEREGVSCISSSTGSTYYADSVKGRFTISRDNGKNTVYLQMNSLKPEDTAVYYCAADKMWSPCLVAANEEALFEYDYWGQGTQVTVSS"
observation_type = "IC50 (nM) XG-1"
meas_value = 50.5

[[record]]
binder = "IL6R08 (VHH, also called PMP34A12; not shown: C-terminal c-myc and (His)6 tags) VHH: EVQLVESGGGLVQPGGSLRLSCVASGFSLDYYVIGWFRQAPGKEREGVSCISSSDGSTYYADSVKGRFTISRDNAKNTVYLQMNSLKPEDTAVYYCAADLLRTPEFCVDSAPYDYWGQGTQVTVSS"
observation_type = "IC50 (nM) XG-1"
meas_value = 36.6

[[record]]
binder = "IL6R02 (VHH, also called PMP30C11; not shown: C-terminal c-myc and (His)6 tags) VHH: EVQLVESGGGLVQAGGSLRLSCAASGRTFSSYDMGWYRQAPGKEREFVAVISRSGSSTYYADSVKGRFTISRDNAKNTVYLQMNSLKPEDTAIYYCKAEVVAGDYDYWGQGTQVTVSS"
observation_type = "IC50 (nM) XG-1"
meas_value = 31

